The origin of these recorded values is the supplement of paper PMC10567573.

B1: PBXIP1 (parent)
chain: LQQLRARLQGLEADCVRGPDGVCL

Variants of: B1
Assay: protein stability index of a GFP-peptide fusion (GPS, HEK-293T) (PSI 1-6); higher = more stable;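 note: lentivirally expressed fusions sorted by FACS into six bins by GFP to DsRed ratio, PSI derived from sequencing read proportions per bin multiplied by bin number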
Details: c terminus: a fixed tail appended
recordedEndpoint: protein stability index

Would you please look over these solved cases?
LQQLRARLQGLEGDCVRGPDGVCL [A13G] = 1.87
LQQLRARLQWLEADCVRGPDGVCL [G10W] = 2.15
NQQLRARLQGLEADCVRGPDGVCL [L1N] = 2.96

For every item in the list below, what is its measured protein stability index?
1. LQQLRARLQGLEADCVRGPDYVCL [G21Y]
2. LQQLRARLQGWEADCVRGPDGVCL [L11W]
3. LQQLRMRLQGLEADCVRGPDGVCL [A6M]
4. LQQLRARLQGLEADKVRGPDGVCL [C15K]

[1.28, 2.78, 1.36, 2.29]

For every item in the list below, what is its measured protein stability index?
1. LQQLRARLQGLEAQCVRGPDGVCL [D14Q]
2. LQALRARLQGLEADCVRGPDGVCL [Q3A]
3. LQQLLARLQGLEADCVRGPDGVCL [R5L]

1. 2.21
2. 1.98
3. 1.17

For every item in the list below, what is its measured protein stability index?
1. LQQLRGRLQGLEADCVRGPDGVCL [A6G]
2. LQQLRARLQGLEAWCVRGPDGVCL [D14W]
3. LQQLRARLQGLEADCVRQPDGVCL [G18Q]

2.84
1.32
2.9
